Data origin, for the record: patent US20230357429A1

Entries and their EC50 values follow.
Target Desc: T1, Peptide-10 (cysteine pairing not given here; also: biotinylated (site not given here))
T1 peptide: IDFCAIYQWPVCRS
Assay Method Text: ELISA, Fab on captured biotin-peptide
Where no end group is shown, it is not given here.
// note: answer is a bare numeric in nM

# Binder, Measured
records = [
    ("TBD-1 wt (Fab, V domains shown, Fab; the heavy chain entry is VH-CH1; also called wild-type anti-TROP2 Fab (hRS7); TROP2 Fab) VH: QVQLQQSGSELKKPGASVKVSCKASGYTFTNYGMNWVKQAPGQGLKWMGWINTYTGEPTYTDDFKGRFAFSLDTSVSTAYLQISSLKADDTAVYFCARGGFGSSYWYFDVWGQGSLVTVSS VL: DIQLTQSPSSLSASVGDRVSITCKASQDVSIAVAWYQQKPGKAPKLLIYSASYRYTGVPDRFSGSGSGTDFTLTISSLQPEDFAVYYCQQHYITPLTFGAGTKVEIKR", 62.6),
    ("TBD-6 (LC I93A) (Fab, V domains shown, Fab; also called LC I93A mutant) VH: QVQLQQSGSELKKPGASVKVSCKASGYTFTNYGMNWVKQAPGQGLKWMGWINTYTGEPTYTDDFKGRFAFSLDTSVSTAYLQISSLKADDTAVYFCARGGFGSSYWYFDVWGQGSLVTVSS VL: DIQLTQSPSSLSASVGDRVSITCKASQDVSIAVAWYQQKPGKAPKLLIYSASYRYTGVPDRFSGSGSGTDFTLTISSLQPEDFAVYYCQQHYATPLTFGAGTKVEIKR", 8.5),
]

Item: TBD-21 (HC F108A) (Fab, V domains shown, Fab; also called HC F108A mutant) VH: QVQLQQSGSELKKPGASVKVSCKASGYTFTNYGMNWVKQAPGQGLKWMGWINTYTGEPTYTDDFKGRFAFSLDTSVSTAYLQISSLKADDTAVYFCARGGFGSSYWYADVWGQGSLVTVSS VL: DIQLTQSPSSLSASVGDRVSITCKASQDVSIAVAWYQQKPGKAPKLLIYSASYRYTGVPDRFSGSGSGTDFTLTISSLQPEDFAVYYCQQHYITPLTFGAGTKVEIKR | EC50: 15.2
